biological target: PrP^C (cellular prion protein) (Mus musculus)
Sequence (P04925 23-230 limits assumed): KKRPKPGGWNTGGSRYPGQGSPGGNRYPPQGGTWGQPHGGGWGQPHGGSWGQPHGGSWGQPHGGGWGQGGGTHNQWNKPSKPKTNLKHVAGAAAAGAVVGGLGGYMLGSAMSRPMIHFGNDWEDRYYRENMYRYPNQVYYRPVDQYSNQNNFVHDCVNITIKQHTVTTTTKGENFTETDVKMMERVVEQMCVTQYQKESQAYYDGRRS
ASSAY_METRIC: Kd (µM)
Return type: number; implicit unit µM.

Field: Kd (PrP^C (cellular prion protein) (Mus musculus)). Entry: C[n+]1ccc(C2=C3C=CC(=N3)C(c3cc[n+](C)cc3)=c3ccc4[n]3[Fe+][n]3c2ccc3C(c2cc[n+](C)cc2)=C2C=CC(=N2)C=4c2cc[n+](C)cc2)cc1 [Fe(III)-TMPyP]
1.21

The reported numbers originate from paper PMC4791597.
